Data origin: patent US7151195B2

System: Common Cutworm (Spodoptera litura)
Assay: Insecticidal test on common cutworm (Test Example 2)
Format: in vivo
Conditions: 50 ppm; cabbage leaf immersed about 30 seconds; second-instar larvae; counted eight days after inoculation; 25° C.
measurementType: Test Example 2: insecticidal effect (mortality criterion)

> print(dat)
                                    molecule                       subjectoftest            reported
 1  CCN(C(=O)c1cccc(I)c1C(=O)NC(C)(C)CS(C)(=O)=O)c1ccc(S(F)(F)(F)(F)F)cc1  Common Cutworm (Spodoptera litura)  A (Mortality 100%)
 2  CCN(C(=O)c1cccc(I)c1C(=O)NC(C)(C)CSC)c1ccc(S(F)(F)(F)(F)F)cc1  Common Cutworm (Spodoptera litura)  A (Mortality 100%)
 3  CC(C)(CS(C)(=O)=O)NC(=O)c1c(I)cccc1C(=O)Nc1cccc(S(F)(F)(F)(F)F)c1Cl  Common Cutworm (Spodoptera litura)  A (Mortality 100%)
 4  CC(C)(CS(C)(=O)=O)NC(=O)c1c(I)cccc1C(=O)Nc1cccc(S(F)(F)(F)(F)F)c1  Common Cutworm (Spodoptera litura)  A (Mortality 100%)
 5  CSCC(C)(C)NC(=O)c1c(I)cccc1C(=O)Nc1cccc(S(F)(F)(F)(F)F)c1Cl  Common Cutworm (Spodoptera litura)  A (Mortality 100%)
 6  Cc1cc(S(F)(F)(F)(F)F)ccc1NC(=O)c1cccc(I)c1C(=O)NC(C)CS(C)(=O)=O (centres unmarked)  Common Cutworm (Spodoptera litura)  A (Mortality 100%)
 7  Cc1cc(S(F)(F)(F)(F)F)ccc1NC(=O)c1cccc(I)c1C(=O)NC(C)(C)CS(C)(=O)=O  Common Cutworm (Spodoptera litura)  A (Mortality 100%)
 8  CSCC(C)NC(=O)c1c(I)cccc1C(=O)Nc1ccc(S(F)(F)(F)(F)F)cc1C (centres unmarked)  Common Cutworm (Spodoptera litura)  A (Mortality 100%)
 9  CSCC(C)(C)NC(=O)c1c(I)cccc1C(=O)Nc1ccc(S(F)(F)(F)(F)F)cc1C  Common Cutworm (Spodoptera litura)  A (Mortality 100%)
10  Cc1cc(S(F)(F)(F)(F)F)ccc1NC(=O)c1cccc(I)c1C(=O)NC(C)(C)C[S+](C)[O-] (centres unmarked)  Common Cutworm (Spodoptera litura)  A (Mortality 100%)
11  CCN(C(=O)c1cccc(I)c1C(=O)NC(C)(C)C[S+](C)[O-])c1ccc(S(F)(F)(F)(F)F)cc1 (centres unmarked)  Common Cutworm (Spodoptera litura)  A (Mortality 100%)
12  CSCC(C)(C)NC(=O)c1c(I)cccc1C(=O)Nc1ccc(S(F)(F)(F)(F)F)cc1  Common Cutworm (Spodoptera litura)  A (Mortality 100%)
